# ASSAY SYSTEM: LHRH receptors (Rattus norvegicus)
# Construct: Pituitary membranes containing LHRH receptors are prepared in batches from quick-frozen rat pituitaries; tissue Hilltop Labs; host or cells: rat pituitary membranes
# PROTOCOL: Receptor Binding (radioligand receptor binding assay)
# RECORDED CONDITIONS: table 3; rat pituitary membranes, radioiodinated [D-Leu^6 -des Gly^10 ]-LHRH ethyl amide 50 pM, 2 hours at 4° C.; read-out: Receptor Binding pkI (converted)
Square brackets hold non-standard residues; d marks the D form. Peptide text beside a SMILES is read from it. * marks the point of attachment. Propanoyl(3-indol-3-yl) = O=C(CCc1c[nH]c2ccccc12)*; Indole2carbonyl(5-F) = O=C(c1cc2cc(F)ccc2[nH]1)*; Propanoyl(3-(4-Cl-Ph)) = O=C(CCc1ccc(Cl)cc1)*
ENDPOINT: Ki (nM)
Express it in nM; write the number only.

MOLECULE	ENDPOINT	OBSERVED
CCNC(=O)[C@@H]1CCCN1C(=O)[C@H](CCCNC(=N)N)NC(=O)[C@H](CC(C)C)NC(=O)[C@@H](CCCCN)NC(=O)[C@H](Cc1ccc(O)cc1)NC(=O)[C@H](CO)NC(=O)CCc1c[nH]c2ccccc12 [Compound 55] ({Propanoyl(3-indol-3-yl)}-SY[dK]LRP-NHEt)	Ki	15.1
CCNC(=O)[C@@H]1CCCN1C(=O)[C@H](CCCNC(=N)N)NC(=O)[C@H](CC(C)C)NC(=O)[C@@H](Cc1c[nH]c2ccccc12)NC(=O)[C@H](Cc1ccc(O)cc1)NC(=O)[C@H](CO)NC(=O)[C@@H](Cc1c[nH]c2ccccc12)NC(=O)c1cc2cc(F)ccc2[nH]1 [Compound 102] ({Indole2carbonyl(5-F)}-[dW]SY[dW]LRP-NHEt)	Ki	17.4

Now consider the entry below.
Identify the reported Ki for the following entry. CCNC(=O)[C@@H]1CCCN1C(=O)[C@H](CCCN=C(N)N)NC(=O)[C@H](CC(C)C)NC(=O)[C@@H](Cc1c[nH]c2ccccc12)NC(=O)[C@H](Cc1ccc(O)cc1)NC(=O)[C@H](CO)NC(=O)[C@@H](Cc1ccc(O)cc1)NC(=O)CCc1ccc(Cl)cc1 [Compound 86] ({Propanoyl(3-(4-Cl-Ph))}-[dY]SY[dW]LRP-NHEt)
0.0174

---

# ASSAY SYSTEM: LHRH receptors (Rattus norvegicus, UniProt P30969)
# Construct: Pituitary membranes containing LHRH receptors are prepared in batches from quick-frozen rat pituitaries; tissue Hilltop Labs; host or cells: rat pituitary membranes
# Sequence (P30969 whole entry): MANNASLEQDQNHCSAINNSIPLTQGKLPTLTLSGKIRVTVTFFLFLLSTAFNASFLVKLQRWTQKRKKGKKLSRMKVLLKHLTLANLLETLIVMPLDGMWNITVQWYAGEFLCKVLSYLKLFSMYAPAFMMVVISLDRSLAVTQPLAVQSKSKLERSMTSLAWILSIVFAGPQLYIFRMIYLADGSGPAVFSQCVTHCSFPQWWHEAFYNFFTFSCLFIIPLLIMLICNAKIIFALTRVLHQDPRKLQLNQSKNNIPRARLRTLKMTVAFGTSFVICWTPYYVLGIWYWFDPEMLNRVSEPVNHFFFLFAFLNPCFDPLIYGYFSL
# PROTOCOL: Receptor Binding (radioligand receptor binding assay)
# RECORDED CONDITIONS: table 4; rat pituitary membranes, radioligand 50 pM, 2 hours at 4° C.; read-out: Receptor Binding pkI (converted)
Numbered stars: 1 amine (or outer) side, 2 acyl side, 3 side chain; on linkers, the order of the positions; unused ones are H or OH. Square brackets hold non-standard residues; d marks the D form. Peptide text beside a SMILES is read from it. * marks the point of attachment. Hydrocinnamoyl(2,4-F2) = O=C(CCc1ccc(F)cc1F)*; 1Nal = N[C@@H](Cc1cccc2ccccc12)C(=O)O; NMeY = CN[C@@H](Cc1ccc(O)cc1)C(=O)O; Morpholide = C1CN(*)CCO1; CO = O=C([*:1])[*:2]
Below, each entry is listed alongside its reported Ki.
Express it in nM; write the number only.

COMPOUND	Ki (nM)
CC(C)C[C@H](NC(=O)[C@@H](Cc1c[nH]c2ccccc12)NC(=O)[C@H](Cc1ccc(O)cc1)N(C)C(=O)[C@H](CO)NC(=O)[C@@H](Cc1c[nH]c2ccccc12)NC(=O)[C@H](Cc1cccc2ccccc12)NC(=O)N1CCOCC1)C(=O)N[C@@H](CCCNC(=N)N)C(=O)N1CCC[C@H]1C(=O)N[C@H](C)C(N)=O [Compound 221] ({Morpholide-CO}-[1Nal][dW]S[NMeY][dW]LRP[dA]-NH2)	0.204

Now consider the entry below.
Identify the reported Ki for the following entry. CCNC(=O)[C@@H]1CCCN1C(=O)[C@H](CCCN=C(N)N)NC(=O)[C@H](CC(C)C)NC(=O)[C@@H](Cc1c[nH]c2ccccc12)NC(=O)[C@H](Cc1ccc(O)cc1)N(C)C(=O)[C@H](CO)NC(=O)[C@@H](Cc1c[nH]c2ccccc12)NC(=O)CCc1ccc(F)cc1F [Compound 155] ({Hydrocinnamoyl(2,4-F2)}-[dW]S[NMeY][dW]LRP-NHEt)
0.049
